# Measurement description: BSK_KF3CT_SRB: Viability Assessment in the BioMAP Diversity Plus: KF3CT Assay (AID 2283069);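 note: total protein by sulforhodamine B staining as a cytotoxicity measure; read 24 h after compound addition; fitted for both signal gain and loss against DMSO baseline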
# Condition label: primary human keratinocytes with fibroblasts
The source made the active and inactive calls. Rule for the calls: active = hit-call score of the fitted dose curve at least 0.9, where 1 is the maximum; inactive = score below 0.9.
Outcome codes: TRUE for active, FALSE for inactive

Molecule | Class
Nc1nc(N)nc(NC2CC2)n1 | FALSE
COP(=O)(NC(C)=O)SC (stereo not drawn) | FALSE
CC(Oc1cccc(Cl)c1)C(=O)O (stereo not drawn) | FALSE
CC(C1CC1)C(O)(Cn1cncn1)c1ccc(Cl)cc1 (stereo not drawn) | FALSE
Cc1cc(C2CC2)nc(Nc2ccccc2)n1 | FALSE
Cc1nn(-c2cc(NS(C)(=O)=O)c(Cl)cc2Cl)c(=O)n1C(F)F | FALSE
C#CC(C)(C)NC(=O)c1cc(Cl)cc(Cl)c1 | FALSE
CCCSP(=O)(OCC)Oc1ccc(Br)cc1Cl (stereo not drawn) | TRUE
CON=C(C(=O)OC)c1ccccc1CON=C(C)c1cccc(C(F)(F)F)c1 | FALSE
CSc1nc(NC(C)C)nc(NC(C)C)n1 | FALSE
CNc1cnn(-c2cccc(C(F)(F)F)c2)c(=O)c1Cl | FALSE
S=C1NCCN1 | FALSE
CCOP(=S)(OCC)Oc1ccc([N+](=O)[O-])cc1 | FALSE
